Target: recombinant human SUV39H1 (Homo sapiens)
Sequence (O43463 whole entry): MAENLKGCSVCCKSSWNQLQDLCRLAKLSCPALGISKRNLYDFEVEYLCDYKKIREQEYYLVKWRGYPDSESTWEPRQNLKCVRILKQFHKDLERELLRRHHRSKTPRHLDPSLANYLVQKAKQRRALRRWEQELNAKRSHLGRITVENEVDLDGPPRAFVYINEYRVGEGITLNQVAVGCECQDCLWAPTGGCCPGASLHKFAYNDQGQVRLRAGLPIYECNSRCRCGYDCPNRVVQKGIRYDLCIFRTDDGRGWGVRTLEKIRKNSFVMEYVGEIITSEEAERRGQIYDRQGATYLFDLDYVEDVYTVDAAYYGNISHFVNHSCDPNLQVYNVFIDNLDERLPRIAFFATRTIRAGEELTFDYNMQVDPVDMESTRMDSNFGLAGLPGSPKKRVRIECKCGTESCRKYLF
Assay: HMTase EC50 assay with recombinant human SUV39H1 (Reaction Biology Corp.)
Conditions: 10-dose, 3-fold serial dilutions; S-(methyl-3H) Adenosyl-L-Methionine; H3 peptide (N1-21); read-out: EC50 against recombinant human SUV39H1 in vitro
Procedure: F5446 was sent to Reaction Biology Corp. (Malvern Pa.) to validate its inhibitory activity and to determine its EC50 for SUV39H1. F5446 was assayed in a 10-dose EC50 mode with 3-fold serial dilutions using recombinant human SUV39H1 protein as the methyltransferase, S-(methyl-3H) Adenosyl-L-Methionine as the substrate, and H3 peptide (N1-21) as the template in the presence of indicated doses of F5446. The EC50 was calculated with Prizm Program.
measure: EC50 (nM)
Kindly provide the numeric value in nM only, without the unit symbol.

response.value for COC(=O)c1cc2c(n1S(=O)(=O)c1ccc(Cl)cc1)C(=O)C(=O)c1[nH]cc(C(=O)OCc3ccccc3)c1-2 (field: EC50) = 496

Cited source for all entries: patent US10577371B2
